- System: Homo sapiens
- protocol description: Cmax in healthy human plasma assessed as bisdesethylchloroquine level at 400 mg, po administered as single dose
- Format: ADME, organism-based
- Parameters: dose 400 mg, route oral
- experimental conditions: in vivo
reported property: Cmax (nM)
Give just the numeric value; nM need not be written.

Cmax lookup needed for CCN(CCO)CCCC(C)Nc1ccnc2cc(Cl)ccc12 (stereo unspecified) [HYDROXYCHLOROQUINE] , thanks.
360

====

- protocol description: Apparent peripheral distribution volume in healthy human at 400 mg, po administered as single dose
- Assay type: ADME, organism-based
- experimental conditions: in vivo, read-out: Vz/F
reported property: Vd/F (L)
Give just the numeric value; L need not be written.

Vd/F lookup needed for CCN(CCO)CCCC(C)Nc1ccnc2cc(Cl)ccc12 (stereo unspecified) [HYDROXYCHLOROQUINE] , thanks.
2850

Data origin: ChEMBL document CHEMBL1649152
